The entries below are paired with their reported kinetic units (KU) of apoptosis.
# Test system: Probable mesothelioma (pleural effusion)
# ASSAY EXPLANATION: MiCK assay, drug-induced apoptosis, Table 3 tumor A2
# Assay type: cell-based, human
# RUN CONDITIONS: Table 3 tumor A2: Probable mesothelioma (pleural effusion); 48 hours with drug

MOLECULE: CC[C@]1(O)C[C@H]2CN(CCc3c([nH]c4ccccc34)[C@@](C(=O)OC)(c3cc4c(cc3OC)N(C=O)[C@H]3[C@@](O)(C(=O)OC)[C@H](OC(C)=O)[C@]5(CC)C=CCN6CC[C@]43[C@@H]65)C2)C1
TEST TARGET: Probable mesothelioma (pleural effusion)
kinetic units (KU) of apoptosis: 2.80

MOLECULE: CC[C@@]1(O)C(=O)OCc2c1cc1n(c2=O)Cc2cc3c(CN(C)C)c(O)ccc3nc2-1
TEST TARGET: Probable mesothelioma (pleural effusion)
kinetic units (KU) of apoptosis: 3.60

MOLECULE: COc1cccc2c1C(=O)c1c(O)c3c(c(O)c1C2=O)C[C@@](O)(C(=O)CO)C[C@@H]3O[C@H]1C[C@H](N)[C@@H](O)[C@H](C)O1 [Epirubicin]
TEST TARGET: Probable mesothelioma (pleural effusion)
kinetic units (KU) of apoptosis: 3.80

---

# System: Probable mesothelioma (pleural effusion)
# ASSAY EXPLANATION: MiCK assay, drug-induced apoptosis, Table 3 tumor A2
# Assay type: cell-based, human
# RUN CONDITIONS: Table 3 tumor A2: Probable mesothelioma (pleural effusion); 48 hours with drug
Numbered stars: 1 amine (or outer) side, 2 acyl side, 3 side chain; on linkers, the order of the positions; unused ones are H or OH. Bridge positions count the residues as written; N and C are the ends. Square brackets hold non-standard residues; d marks the D form. Peptide text beside a SMILES is read from it. I, II: the chains in the order shown. Actinocin(9to1) = Cc1c2oc3c(C)ccc(C(=O)[*:1])c3nc-2c(C(=O)[*:2])c(N)c1=O; NMeV = CN[C@H](C(=O)O)C(C)C; Sar = CNCC(=O)O

COMPOUND: Cc1c2oc3c(C)ccc(C(=O)N[C@@H]4C(=O)N[C@H](C(C)C)C(=O)N5CCC[C@H]5C(=O)N(C)CC(=O)N(C)[C@@H](C(C)C)C(=O)O[C@@H]4C)c3nc-2c(C(=O)N[C@@H]2C(=O)N[C@H](C(C)C)C(=O)N3CCC[C@H]3C(=O)N(C)CC(=O)N(C)[C@@H](C(C)C)C(=O)O[C@@H]2C)c(N)c1=O [Dactinomycin] (I: T[dV]P[Sar][NMeV] / II: T[dV]P[Sar][NMeV]; ester I:1-I:C, II:1-II:C; linker I:N-II:N via Actinocin(9to1))
TEST TARGET: Probable mesothelioma (pleural effusion)
kinetic units (KU) of apoptosis: 4.70 KU

---

# Test system: NSCLC, multi-focal, recurrent adenocarcinoma (site A)
# ASSAY EXPLANATION: MiCK assay, drug-induced apoptosis, Table 3 tumor C1
# Assay type: cell-based, human
# RUN CONDITIONS: Table 3 tumor C1: NSCLC, multi-focal, recurrent adenocarcinoma (site A); 48 hours with drug
The entries below are paired with their reported kinetic units (KU) of apoptosis.

COMPOUND: COc1cc([C@@H]2c3cc4c(cc3[C@@H](O[C@@H]3O[C@@H]5CO[C@@H](C)O[C@H]5[C@H](O)[C@H]3O)[C@H]3COC(=O)[C@H]23)OCO4)cc(OC)c1O [Etoposide]
UNITS LABEL: KU
kinetic units (KU) of apoptosis: 0.80
--
COMPOUND: CC(=O)O[C@H]1C(=O)[C@@]2(C)[C@H]([C@H](OC(=O)c3ccccc3)[C@]3(O)C[C@H](OC(=O)[C@H](O)[C@@H](NC(=O)c4ccccc4)c4ccccc4)C(C)=C1C3(C)C)[C@]1(OC(C)=O)CO[C@@H]1C[C@@H]2O [Paclitaxel]
UNITS LABEL: KU
kinetic units (KU) of apoptosis: 0.00
--
COMPOUND: CC(=O)[C@]1(O)Cc2c(O)c3c(c(O)c2[C@@H](O[C@H]2C[C@H](N)[C@H](O)[C@H](C)O2)C1)C(=O)c1ccccc1C3=O [Idarubicin]
UNITS LABEL: KU
kinetic units (KU) of apoptosis: 0.90
--
COMPOUND: CC[C@]1(O)C[C@H]2CN(CCc3c([nH]c4ccccc34)[C@@](C(=O)OC)(c3cc4c(cc3OC)N(C=O)[C@H]3[C@@](O)(C(=O)OC)[C@H](OC(C)=O)[C@]5(CC)C=CCN6CC[C@]43[C@@H]65)C2)C1 [Vincristine]
UNITS LABEL: KU
kinetic units (KU) of apoptosis: 0.00
--
COMPOUND: Nc1ccn([C@@H]2O[C@H](CO)[C@@H](O)C2(F)F)c(=O)n1 [Gemcitabine]
UNITS LABEL: KU
kinetic units (KU) of apoptosis: 0.00
--
COMPOUND: Nc1nc2[nH]cc(CCc3ccc(C(=O)N[C@@H](CCC(=O)O)C(=O)O)cc3)c2c(=O)[nH]1 [Alimta, Pemetrexed]
UNITS LABEL: KU
kinetic units (KU) of apoptosis: 0.80
--
COMPOUND: CCc1c2c(nc3ccc(OC(=O)N4CCC(N5CCCCC5)CC4)cc13)-c1cc3c(c(=O)n1C2)COC(=O)[C@]3(O)CC [Irinotecan]
UNITS LABEL: KU
kinetic units (KU) of apoptosis: 0.40
--
COMPOUND: N.N.O=C([O-])C1(C(=O)[O-])CCC1.[Pt+2] [Carboplatin]
UNITS LABEL: KU
kinetic units (KU) of apoptosis: 0.40
--
COMPOUND: CC(C)C[C@H](NC(=O)[C@H](Cc1ccccc1)NC(=O)c1cnccn1)B(O)O [Velcade, Bortezomib]
UNITS LABEL: KU
kinetic units (KU) of apoptosis: 0.20
--
COMPOUND: COc1cccc2c1C(=O)c1c(O)c3c(c(O)c1C2=O)C[C@@](O)(C(=O)CO)C[C@@H]3O[C@H]1C[C@H](N)[C@H](O)[C@H](C)O1 [Doxorubicin]
UNITS LABEL: KU
kinetic units (KU) of apoptosis: 0.80
--
COMPOUND: O=P1(NCCCl)OCCCN1CCCl (centres unmarked) [4HI (Ifosfamide), Ifosfamide]
UNITS LABEL: KU
kinetic units (KU) of apoptosis: 0.50
--
COMPOUND: CO[C@@]12[C@H](COC(N)=O)C3=C(C(=O)C(C)=C(N)C3=O)N1C[C@@H]1N[C@@H]12 [Mitomycin]
UNITS LABEL: KU
kinetic units (KU) of apoptosis: 0.00
--
COMPOUND: CC[C@@]1(O)C(=O)OCc2c1cc1n(c2=O)Cc2cc3c(CN(C)C)c(O)ccc3nc2-1 [Topotecan]
UNITS LABEL: KU
kinetic units (KU) of apoptosis: 0.50
--
COMPOUND: N.N.[Cl][Pt][Cl] [Cisplatin]
UNITS LABEL: KU
kinetic units (KU) of apoptosis: 0.00

---

The entries below are paired with their reported kinetic units (KU) of apoptosis.
# Tested on: Probable mesothelioma (pleural effusion)
# ASSAY EXPLANATION: MiCK assay, drug-induced apoptosis, Table 3 tumor A2
# Format: cell-based, human
# RUN CONDITIONS: Table 3 tumor A2: Probable mesothelioma (pleural effusion); 48 hours with drug

MOLECULE: CC(C)C[C@H](NC(=O)[C@H](Cc1ccccc1)NC(=O)c1cnccn1)B(O)O [Velcade, Bortezomib]
kinetic units (KU) of apoptosis: 1.10 KU
--
MOLECULE: CC(=O)O[C@@]12CO[C@@H]1C[C@H](O)[C@@]1(C)C(=O)[C@H](O)C3=C(C)[C@@H](OC(=O)[C@H](O)[C@@H](NC(=O)OC(C)(C)C)c4ccccc4)C[C@@](O)([C@@H](OC(=O)c4ccccc4)[C@H]21)C3(C)C [Docetaxel]
kinetic units (KU) of apoptosis: 1.10 KU
--
MOLECULE: N.N.O=C([O-])C1(C(=O)[O-])CCC1.[Pt+2] [Carboplatin]
kinetic units (KU) of apoptosis: 1.50 KU
--
MOLECULE: CN(Cc1cnc2nc(N)nc(N)c2n1)c1ccc(C(=O)N[C@@H](CCC(=O)O)C(=O)O)cc1 [Methotrexate]
kinetic units (KU) of apoptosis: 0.50 KU

---

The entries below are paired with their reported kinetic units (KU) of apoptosis.
# System: Lung adenocarcinoma (pleural effusion)
# ASSAY EXPLANATION: MiCK assay, drug-induced apoptosis, Table 4 tumor B1
# Assay type: cell-based, human
# RUN CONDITIONS: Table 4 tumor B1: Lung adenocarcinoma (pleural effusion); 48 hours with drug
# Description: Data were obtained optically using Mie light-scattering. Patients: Three patients were included in this study. […] Patient A was diagnosed with pancreatic islet cell cancer; sample 1 was collected from lymph node and sample 2 was collected from the primary tumor. Patient B was diagnosed with lung cancer NSCLC adenocarcinoma; sample 1 was collected from pleural effusion and sample 2 was collected from solid tumor. […] Ages of the patients ranged from 51-79 years old with an average age of 65 years. […]

COMPOUND: CC(=O)O[C@@]12CO[C@@H]1C[C@H](O)[C@@]1(C)C(=O)[C@H](O)C3=C(C)[C@@H](OC(=O)[C@H](O)[C@@H](NC(=O)OC(C)(C)C)c4ccccc4)C[C@@](O)([C@@H](OC(=O)c4ccccc4)[C@H]21)C3(C)C
TEST TARGET: Lung adenocarcinoma (pleural effusion)
kinetic units (KU) of apoptosis: 4.20 KU

COMPOUND: O=P1(NCCCl)OCCCN1CCCl (centres unmarked) [4HI (Ifosfamide), Ifosfamide]
TEST TARGET: Lung adenocarcinoma (pleural effusion)
kinetic units (KU) of apoptosis: 2.40 KU

COMPOUND: CCN(CC)CCNC(=O)c1c(C)[nH]c(/C=C2\C(=O)Nc3ccc(F)cc32)c1C
TEST TARGET: Lung adenocarcinoma (pleural effusion)
kinetic units (KU) of apoptosis: 0.70 KU

COMPOUND: CCC1=C[C@@H]2CN(C1)Cc1c([nH]c3ccccc13)[C@@](C(=O)OC)(c1cc3c(cc1OC)N(C)[C@H]1[C@@](O)(C(=O)OC)[C@H](OC(C)=O)[C@]4(CC)C=CCN5CC[C@]31[C@@H]54)C2
TEST TARGET: Lung adenocarcinoma (pleural effusion)
kinetic units (KU) of apoptosis: 3.90 KU

COMPOUND: CC[C@]1(O)C[C@H]2CN(CCc3c([nH]c4ccccc34)[C@@](C(=O)OC)(c3cc4c(cc3OC)N(C=O)[C@H]3[C@@](O)(C(=O)OC)[C@H](OC(C)=O)[C@]5(CC)C=CCN6CC[C@]43[C@@H]65)C2)C1
TEST TARGET: Lung adenocarcinoma (pleural effusion)
kinetic units (KU) of apoptosis: 0.90 KU
